MIC values, listed per item
Test system: Escherichla coli
Test: Antimicrobial broth microdilution, MIC
Format: cell-based
Conditions: Escherichla coli; read-out: Minimum inhibitory concentration
Measurement label: MIC

Compound: COc1cc(OC)cc(C(O)c2ccc(O)cc2)c1 (centres unmarked) [Compound 15c, 4′-Hydroxy-3,5-dimethoxybenzhydrol]
Measurement label: MIC
Test result: > 64 µg/mL

Compound: COc1cc(O)cc(C(=O)c2ccc(O)cc2)c1 [Compound 16i, 3,4′-dihydroxy-5-methoxybenzophenone]
Measurement label: MIC
Test result: > 64 µg/mL

Compound: COc1ccc(C(=O)c2cc(O)cc(OC)c2)cc1 [Compound 16k, 4′,5-dimethoxy-3-hydroxybenzophenone]
Measurement label: MIC
Test result: > 64 µg/mL

Compound: COc1cc(C=Cc2ccc(O)cc2)cc(OC)c1 [Compound 14c, 3,5-dimethoxy-4′-hydroxy-stilbene]
Measurement label: MIC
Test result: > 64 µg/mL

Compound: COc1ccc(C=Cc2cc(O)cc(O)c2)cc1 [Compound 14k, 3,5-dihydroxy-4′-methoxy-stilbene]
Measurement label: MIC
Test result: > 64 µg/mL
